target: Rhesus PDE2A3 (Macaca mulatta, UniProt B3VTJ2); experiment: PDE2 fluorescence polarization (IMAP FP) inhibition assay, rhesus enzyme; format: biochemical, rhesus macaque; conditions: Rhesus PDE2, Lab B; read-out: Rhesus PDE2 Ki (nM) - Lab B
Sequence (B3VTJ2 1-941): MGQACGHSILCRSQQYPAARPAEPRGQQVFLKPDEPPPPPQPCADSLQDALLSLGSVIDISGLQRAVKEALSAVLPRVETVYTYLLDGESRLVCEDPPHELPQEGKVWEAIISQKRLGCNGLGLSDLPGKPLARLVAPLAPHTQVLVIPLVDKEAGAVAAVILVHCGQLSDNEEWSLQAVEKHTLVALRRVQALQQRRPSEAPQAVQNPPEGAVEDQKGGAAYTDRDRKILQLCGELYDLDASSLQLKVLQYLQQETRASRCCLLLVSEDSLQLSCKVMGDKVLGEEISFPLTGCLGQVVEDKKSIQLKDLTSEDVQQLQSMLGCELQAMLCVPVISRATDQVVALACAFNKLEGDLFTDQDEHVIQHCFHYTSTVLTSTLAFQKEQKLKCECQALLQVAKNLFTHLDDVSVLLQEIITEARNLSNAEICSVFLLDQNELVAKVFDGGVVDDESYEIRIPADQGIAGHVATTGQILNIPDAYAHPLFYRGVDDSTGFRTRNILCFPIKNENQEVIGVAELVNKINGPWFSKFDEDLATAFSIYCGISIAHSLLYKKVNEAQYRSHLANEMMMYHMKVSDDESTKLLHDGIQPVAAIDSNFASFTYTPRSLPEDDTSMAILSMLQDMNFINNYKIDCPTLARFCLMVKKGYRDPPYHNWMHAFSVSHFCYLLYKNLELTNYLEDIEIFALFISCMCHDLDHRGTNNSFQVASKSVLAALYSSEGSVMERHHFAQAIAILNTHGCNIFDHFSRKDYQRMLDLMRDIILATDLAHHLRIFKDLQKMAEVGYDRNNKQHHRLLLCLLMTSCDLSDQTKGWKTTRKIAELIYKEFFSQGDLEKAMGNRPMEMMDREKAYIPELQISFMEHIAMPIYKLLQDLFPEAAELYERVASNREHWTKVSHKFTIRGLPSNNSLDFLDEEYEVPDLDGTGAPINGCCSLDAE
Decide using Ki alone. Strictly below 5 nM: Y. Equal to or above 5 nM: N.

Example results:
compound=COc1cc(CNC(=O)c2cc(=O)[nH]c(-c3ccccc3)n2)cc(OC)c1OC group=N
compound=Cc1nc(C(=O)N[C@@H](c2ccc(OC(F)(F)F)cc2)C2CC2)cc(=O)[nH]1 group=N
compound=CC(C)(NC(=O)c1cc(=O)[nH]c(-c2ccccc2)n1)c1ccccc1Br group=N
compound=CC(C)c1ccc(CCNC(=O)c2cc(=O)[nH]c(-c3ccccc3)n2)cc1 group=N
compound=CC(C)(C)[C@@H](NC(=O)c1cc(=O)[nH]c(C2CC2)n1)c1ccc(OC(F)F)cc1 group=Y

**Q:** Please state whether Ki is below 5 nM for Cc1nc(C(=O)NC(C)c2ccc(C(C)(C)C(F)(F)F)cc2)cc(=O)[nH]1 (single isomer, unassigned) [Example 694]
**A:** N

**Q:** Try this compound next: "COc1ccc(Cc2nc(C(=O)N[C@@H](c3ccc(OC(F)(F)F)cc3)C(C)(C)C)cc(=O)[nH]2)cc1"
**A:** Y

**Q:** Another compound: O=C(NC(c1ccc(C(F)(F)F)cc1)C(F)(F)F)c1cc(=O)[nH]c(-c2ccccc2)n1 (stereo not shown)
**A:** N

###

biological target: Rhesus PDE2A3 (Macaca mulatta, UniProt B3VTJ2); assay: PDE2 fluorescence polarization (IMAP FP) inhibition assay, rhesus enzyme; format: biochemical, rhesus macaque; conditions: Rhesus PDE2, Lab B; read-out: Rhesus PDE2 Ki (nM) - Lab B
metric_name: Ki (nM)
Write the number in nM without appending the unit.

Check out these entries, answers already filled in.
compound_structure_string=COc1ccc(Cc2nc(C(=O)N[C@@H](c3ccc(SC(F)(F)F)c(F)c3)C(C)C)cc(=O)[nH]2)cc1F metric_name=Ki test_value=1.5
compound_structure_string=CC(C)(NC(=O)c1cc(=O)[nH]c(-c2ccccc2)n1)c1ccccc1 metric_name=Ki test_value=1700
compound_structure_string=CC(C)[C@@H](NC(=O)c1cc(=O)[nH]c(-c2ncccn2)n1)c1ccc(S(F)(F)(F)(F)F)cc1 metric_name=Ki test_value=1.6
compound_structure_string=Cc1nc(C(=O)NC2(c3ccc(C(F)(F)F)cc3)CC2)cc(=O)[nH]1 metric_name=Ki test_value=28

In the following, a different molecule is considered.
**Q:** What does the data say about its Ki? Entry: "C[C@@H](NC(=O)c1cc(=O)[nH]c(-c2ccccc2)n1)c1ccc([N+](=O)[O-])cc1"
**A:** 224

###

Target: UniProt:B3VTJ2
Experiment: PDE2 fluorescence polarization (IMAP FP) inhibition assay, rhesus enzyme
Assay type: biochemical, rhesus macaque
Settings: Rhesus PDE2, Lab A; read-out: Rhesus PDE2 Ki (nM) - Lab A
Procedure: The activity of the compounds in accordance with the present invention as PDE2 inhibitors may be readily determined using a fluorescence polarization (FP) methodology (Huang, W., et al., J. Biomol Screen, 2002, 7: 215). In a typical experiment the PDE2 inhibitory activity of the compounds of the present invention was determined in accordance with the following experimental method. […] 0% of inhibition is determined by using DMSO (1% final concentrations). […]
metric_name: log10(Ki) (log10 of the value in nM)
Parameter value (number): base-10 log of Ki in nM.

compound="Cc1nc(C(=O)NC(CO)c2ccc(C(F)(F)F)cc2)cc(=O)[nH]1 (single isomer, unassigned) [Example 312]" target_entity=UniProt:B3VTJ2 test_value=1.85

**Q:** Sample O=C(NCc1ccc(C2CC2)cc1)c1cc(=O)[nH]c(-c2ccccc2)n1 [Example 182] — what was its log10(Ki)?
**A:** 2.15

**Q:** Cool, now CC(C)(NC(=O)c1cc(=O)[nH]c(-c2ccccc2)n1)c1ccccc1Br [Example 373]
**A:** 2.19

**Q:** Next entry: CC(C)[C@@H](NC(=O)c1cc(=O)[nH]c(-c2ncccn2)n1)c1ccc(SC(F)(F)F)cc1 [Example 97]
**A:** 0.18

**Q:** Param item: Cc1nc(C(=O)NC2(c3ccc(SC(F)(F)F)c(F)c3)CC2)cc(=O)[nH]1 [Example 261]
**A:** 1.26

**Q:** Okay, and C[C@@H](NC(=O)c1cc(=O)[nH]c(C2CC2)n1)c1ccc(C(F)(F)F)c(F)c1 [Example 234] ?
**A:** 1.30

###

Molecular target: UniProtKB B3VTJ2
Assay: PDE2 fluorescence polarization (IMAP FP) inhibition assay, rhesus enzyme
Type: biochemical, rhesus macaque
Conditions: Rhesus PDE2, Lab B; read-out: Rhesus PDE2 Ki (nM) - Lab B
Experimental: The activity of the compounds in accordance with the present invention as PDE2 inhibitors may be readily determined using a fluorescence polarization (FP) methodology (Huang, W., et al., J. Biomol Screen, 2002, 7: 215). In a typical experiment the PDE2 inhibitory activity of the compounds of the present invention was determined in accordance with the following experimental method. […] 0% of inhibition is determined by using DMSO (1% final concentrations). […]
# Ki listing for each entry below
Entry rule: numbers only, all in nM.

**Q:** For the molecule shown here, O=C(NC(c1ccncc1)c1ccc(C(F)(F)F)cc1)c1cc(=O)[nH]c(-c2ccccc2)n1 (centres unmarked) , give the reported Ki.
**A:** 407

###

target: Rhesus PDE2A3 (Macaca mulatta, UniProt B3VTJ2); assay: PDE2 fluorescence polarization (IMAP FP) inhibition assay, rhesus enzyme; format: biochemical, rhesus macaque; conditions: Rhesus PDE2, Lab A; read-out: Rhesus PDE2 Ki (nM) - Lab A
Listed below: Ki values for each entry.
Give the value, in units of nM, as a plain number.

For orientation, consider the following solved cases.
compound=Cc1cc(C(F)(F)F)ccc1CNC(=O)c1cc(=O)[nH]c(-c2ccccc2)n1 target_entity="Rhesus PDE2A3 (Macaca mulatta, UniProt B3VTJ2)" metric_name=Ki units=nM test_value=2050
compound=COc1cc(CNC(=O)c2cc(=O)[nH]c(-c3ccccc3)n2)cc(OC)c1OC target_entity="Rhesus PDE2A3 (Macaca mulatta, UniProt B3VTJ2)" metric_name=Ki units=nM test_value=29
compound=CC(C)(NC(=O)c1cc(=O)[nH]c(-c2ncccn2)n1)c1ccc(OC(F)(F)F)cc1 target_entity="Rhesus PDE2A3 (Macaca mulatta, UniProt B3VTJ2)" metric_name=Ki units=nM test_value=2320
compound=C[C@@H](NC(=O)c1nc(C2CCC2)[nH]c(=O)c1C1CCC1)c1ccc(C(F)(F)F)cc1 target_entity="Rhesus PDE2A3 (Macaca mulatta, UniProt B3VTJ2)" metric_name=Ki units=nM test_value=1320

**Q:** Name the reported Ki value associated with the compound COc1cc(C(C)NC(=O)c2cc(=O)[nH]c(-c3ccccc3)n2)ccc1C(F)(F)F (stereo not shown)
**A:** 119

**Q:** Another compound to check: CCc1ccc(C(C)NC(=O)c2cc(=O)[nH]c(C3CC3)n2)cc1 (stereo not shown)
**A:** 72

###

biological target: human PDE2A1 (Homo sapiens (Human), UniProt O00408); assay: IMAP FP PDE selectivity panel, human PDE2A1; format: biochemical; settings: Human PDE2, Lab A; read-out: Human PDE2 Ki (nM) - Lab A
Sequence (O00408 other isoform, or with tags, fused parts or gaps): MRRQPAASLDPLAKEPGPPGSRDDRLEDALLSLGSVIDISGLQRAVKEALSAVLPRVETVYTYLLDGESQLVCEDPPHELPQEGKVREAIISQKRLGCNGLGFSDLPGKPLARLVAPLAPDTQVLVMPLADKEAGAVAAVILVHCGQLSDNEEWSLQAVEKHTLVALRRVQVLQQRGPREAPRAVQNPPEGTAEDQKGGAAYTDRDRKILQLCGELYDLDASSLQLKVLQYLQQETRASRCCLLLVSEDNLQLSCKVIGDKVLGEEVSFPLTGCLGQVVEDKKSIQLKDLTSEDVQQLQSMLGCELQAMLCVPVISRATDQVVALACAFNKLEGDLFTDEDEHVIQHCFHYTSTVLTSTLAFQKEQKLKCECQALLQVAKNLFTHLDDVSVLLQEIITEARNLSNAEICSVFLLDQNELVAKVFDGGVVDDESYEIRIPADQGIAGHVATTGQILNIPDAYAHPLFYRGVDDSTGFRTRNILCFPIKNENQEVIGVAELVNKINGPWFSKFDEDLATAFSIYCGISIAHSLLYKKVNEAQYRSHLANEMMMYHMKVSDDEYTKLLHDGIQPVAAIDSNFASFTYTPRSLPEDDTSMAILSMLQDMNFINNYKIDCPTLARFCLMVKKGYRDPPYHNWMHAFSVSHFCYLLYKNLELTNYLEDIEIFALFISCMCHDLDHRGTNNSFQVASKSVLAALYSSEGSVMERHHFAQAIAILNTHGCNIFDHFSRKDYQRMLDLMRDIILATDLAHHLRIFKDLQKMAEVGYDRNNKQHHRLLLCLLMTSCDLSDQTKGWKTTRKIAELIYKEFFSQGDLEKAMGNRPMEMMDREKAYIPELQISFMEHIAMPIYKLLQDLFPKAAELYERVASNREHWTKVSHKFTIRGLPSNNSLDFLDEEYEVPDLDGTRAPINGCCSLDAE
metric_name: Ki (nM)
The reply should contain only the number, in nM.

compound="C[C@@H](NC(=O)c1cc(=O)[nH]c(C2CC2)n1)c1cc(F)c(C(F)(F)F)c(F)c1 [Example 218]" target_entity="human PDE2A1 (Homo sapiens (Human), UniProt O00408)" metric_name=Ki units=nM test_value=56

Now let's try a different one.
**Q:** I would be grateful if you could share the reported Ki for CC(C)(NC(=O)c1cc(=O)[nH]c(-c2ccccc2)n1)c1ccc(SC(F)(F)F)cc1 [Example 186] .
**A:** 62

###

target: human PDE2A1 (Homo sapiens (Human)); assay: IMAP FP PDE selectivity panel, human PDE2A1; format: biochemical; details: Human PDE2, Lab B; read-out: Human PDE2 Ki (nM) - Lab B
metric_name: Ki (nM)
Your answer should be a plain number; it is taken to be in nM.

Below, each entry is followed by its recorded Ki result.
compound=O=C(N[C@@H](c1ccc(S(F)(F)(F)(F)F)cc1)C1CC1)c1cc(=O)[nH]c(-c2ccccc2)n1 test_value=6.5
compound=O=C(NC1(c2ccc(OC(F)(F)F)c(F)c2)CC1)c1cc(=O)[nH]c(-c2ncccn2)n1 test_value=25
compound=Cc1nc(C(=O)NC(C)(C)c2ccc(OC(F)(F)F)c(F)c2)cc(=O)[nH]1 test_value=80
compound=O=C(N[C@@H](c1ccc(C2CC2)cc1)C1CC1)c1cc(=O)[nH]c(-c2ncccn2)n1 test_value=7.6
compound=Cc1nc(C(=O)N[C@@](C)(CO)c2ccc(C(F)(F)F)cc2)cc(=O)[nH]1 test_value=59
compound=CC(C)(C)[C@@H](NC(=O)c1cc(=O)[nH]c(-c2ncccn2)n1)c1ccc(SC(F)(F)F)cc1 test_value=4.5
compound="N#CC(NC(=O)c1cc(=O)[nH]c(-c2ccccc2)n1)c1ccc(C(F)(F)F)cc1 (centres unmarked)" test_value=126
compound=Cc1nc(C(=O)NC2(c3ccc4c(c3)OC(F)(F)O4)CC2)cc(=O)[nH]1 test_value=87
compound=Cc1nc(C(=O)N[C@@H](c2ccc(OC(F)F)c(F)c2)C(C)C)cc(=O)[nH]1 test_value=17
compound=CC[C@@H](NC(=O)c1cc(=O)[nH]c(Cc2ccc(OC)cc2)n1)c1ccc(OC(F)(F)F)cc1 test_value=1.5

**Q:** What does the record list as Ki for "COc1ccc(C(C)(C)c2nc(C(=O)N[C@@H](c3ccc(SC(F)(F)F)c(F)c3)C(C)C)cc(=O)[nH]2)cc1" ?
**A:** 27

**Q:** Lookup "O=C(NCc1ccc(C(F)(F)F)cc1)c1cc(=O)[nH]c(-c2ccccc2)n1"
**A:** 117

**Q:** And then "CC(C)(C)[C@@H](NC(=O)c1cc(=O)[nH]c(-c2ccccc2)n1)c1ccc(OC(F)F)cc1" , what is it?
**A:** 1.8

**Q:** And "CC(C)(C)[C@@H](NC(=O)c1cc(=O)[nH]c(-c2ccccc2)n1)c1ccc(C2CC2)c(F)c1" ?
**A:** 1.2

**Q:** Now this one: "Cc1nc(C(=O)N[C@@H](c2ccc(OC(F)(F)F)cc2)C(C)(C)C)cc(=O)[nH]1"
**A:** 3.9

**Q:** Also check "CC(C)[C@@H](NC(=O)c1cc(=O)[nH]c(-c2ncccn2)n1)c1ccc(SC(F)(F)F)c(F)c1"
**A:** 1.3

**Q:** Now try "Cc1nc(C(=O)N[C@@H](c2ccc(C(C)(C)C)cc2)C2(C)CC2)cc(=O)[nH]1" .
**A:** 17
